experimental-system: T1, human MOG (hMOG) expressed on HEK293, Expi293F or L929 cells (human, UniProt Q16653 30-247)
T1 construct: also called hMOG/HEK293; hMOG/HEK293F
T1 chain: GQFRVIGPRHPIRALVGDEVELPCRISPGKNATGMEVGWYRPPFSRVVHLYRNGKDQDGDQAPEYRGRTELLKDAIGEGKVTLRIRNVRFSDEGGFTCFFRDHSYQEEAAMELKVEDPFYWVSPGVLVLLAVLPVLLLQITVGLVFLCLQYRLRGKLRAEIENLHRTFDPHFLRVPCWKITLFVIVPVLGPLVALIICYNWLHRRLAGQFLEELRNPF
assay-info: phage clone on hMOG/Expi293F cells

{"columns": ["binder", "binding result"],
 "data": [
  ["MOG352 (scFv phage clone similar to MOG310 antibody) (scFv) scFv: EVQLVQSGAEVKKPGSSVKVSCKASGGTFSRYAINWVRQAPGQGLEWMGGIIPMFSTVNYAQKFQGRVTITADESTSTAYMELSSLRSEDTAVYYCARDWAVAGMGFDYWGQGTLVTVSSGGGGSGGRASGGGGSAIQMTQSPSSVSASVGDRVTITCRASQGISSWLAWYQHKPGKAPKSLIYAASSLQSGVPSRFSGSGSGTDFTLTISSLQPEDFATYYCQQYNSYPLTFGGGTKVDIK", "binds"],
  ["MOG426 (scFv phage clone similar to MOG301 antibody) (scFv) scFv: QVQLVQSGAEVKKPGASVKVSCKASGYSFNSYGINWVRQAPGQGLEWMGWISAYTGKTSYAQKVQGRVTMTTDRSTSTAYMELRSLRSDDTAMYYCAREYDILTGYSDAFDTWGQGTMVTVSSGGGGSGGRASGGGGSEIVLTQSPATLSLSPGERATLSCRASQSVSSYLAWYQQKPGQAPRLLIYDASNRATGIPARFSGSGSGTDFTLTISSLEPEDFAVYYCQQRGNWPLTFGGGTKLEIK", "binds"],
  ["MOG314 (scFv phage clone similar to MOG303 antibody) (scFv) scFv: QVQLVESGGGLVQPGGSLRLSCAASGFTFSSYAMSWVRQAPGKGLEWVSAISGRGSSTYYADSVKGRFTISRDNSKNTLYLQMNSLRAEDTAVYYCAKGYYDILTGSFFDYWGQGTLVTVSSGGGGSGGRASGGGGSDIQLTQSPSSLSASVGDRVTITCRASQGISSALAWYQQKPGKAPKLLIYDASSLESGVPSRFSGSGSGTDFTLTISSLQPEDFATYYCQQFNSYPYTFGQGTKLEIK", "binds"],
  ["MOG470 (scFv phage clone similar to MOG329 antibody) (scFv) scFv: QVQLVESGGGLVQPGGSLRLSCAASGFTFSSYAMNWVRQAPGKGLEWVSAISGSGGSTYYADSVKGRFTISRDNSKNTLYLQVNSLRAEDTAVYYCARDYGGISPFDYWGQGTLVTVSSGGGGSGGRASGGGGSEIVMTQSPATLSLSPGERATLSCRASQSVSSYLAWYQQKPGQAPRLLIYDASNRATGIPARFSGSGSGTDFTLTISRLEPEDFAVYYCQQYGSSPYTFGQGTRLEIK", "binds"],
  ["MOG476 (scFv phage clone similar to MOG303 antibody) (scFv) scFv: EVQLVESGGGLVQPGGSLRLSCAASGFTFSSYAMNWVRQAPGKGLEWVSAISYSGRSTYYADSVKGRFTISRDNSKNTLYLQMNSLRAEDTAVYYCAKGLYDILTGGGFDYWGQGTLVTVSSGGGGSGGRASGGGGSDIQMTQSPSSLSASVGDRVTITCRASQGISSALAWYQQKPGKAPKLLIYDASSLESGVPSRFSGSGSGTDFTLTISSLQPEDFATYYCQQFNSYPSTFGQGTRLEIK", "binds"],
  ["MOG357 (scFv phage clone similar to MOG303 antibody) (scFv) scFv: EVQLVETGGGLVQPGGSLRLSCAASGFTFSSYAMSWVRQAPGKGLEWVSDINHSGGSTYYADSVKGRFTISRDNSKHTLYLQMNSLRAEDTAVYYCAKDYYDILTGSFFDYWGQGTLVTVSSGGGGSGGRASGGGGSDIVMTQSPSSLSASVGDRVTITCRASQGISSALAWYQQKPGKAPKLLIYDASSLESGVPSRFSGSGSGTDFTLTISSLQPEDFATYYCQQFNSYPWTFGQGTKVEIK", "binds"],
  ["MOG308 (scFv phage clone similar to MOG310 antibody) (scFv) scFv: EVQLVQSGAEVRKSGSSVKVSCKASGGTFSRYAISWVRQAPGQGLEWMGGIIPMFSTTNYAQKFQGRVTITADESTSTAYMELSSLRSEDTAVYYCARDWAVAGMGFAYWGQGTLVTVSSGGGGSGGRASGGGGSEIVMTQSPATLSLSPGERATLSCRASQSVSSYLAWYQQKPGQAPRLLIYDASNRATGIPARFSGSGSGTDFTLTISSLEPEDFAVYYCQQRSNWPPTFGQGTKVDIK", "binds"],
  ["MOG456 antibody (anti-MOG scFv displayed on phage, pCANTAB_MOG456) (scFv) scFv: EVQLVESGGGLVKPGGSLRLSCAASGFTFSSYSMHWVRQAPGKGLEWVSSIGSRSRYIYYADSVKGRFTISRDNAKNSLYLQMNSLRAEDTAVYYCAKGYYDILTGSLFDYWGQGTLVTVSSGGGGSGGRASGGGGSDIVMTQSPSSLSASVGDRVTITCRASQGISSALAWYQQKPGKAPKLLIYDASSLESGVPSRFSGSGSGTDFTLTISSLQPEDFATYYCQQFNSYPWTFGQGTKVEIK", "binds"],
  ["MOG329 antibody (anti-MOG scFv displayed on phage, pCANTAB_MOG329) (scFv) scFv: QVQLVESGGGLVQPGGSLRLSCAASGFAFRNYAMNWVRQAPGKGLEWVSAISGSGGSTYYADSVKGRFTISRDNSKNTLYLQMNSLRAEDTAVYYCARDYGGISPFDYWGQGTLVTVSSGGGGSGGRASGGGGSDIQLTQSPSSLSASVGDRVTITCRASQGISSALAWYQQKPGKAPKLLIYDASSLESGVPSRFSGSGSGTDFTLTISSLQPEDFATYYCQQFNSYPHTFGQGTKVDIK", "binds"],
  ["MOG316 (scFv phage clone similar to MOG310 antibody) (scFv) scFv: EVQLVQSGAEVKKPGSSVKVSCKASGGTFSRYAISWVRQAPGQGLEWMGGIIPMFNTANYAQKFQGRVTITADESTSTAYMELSSLRSEDTAVYYCARDWAVAGMGFNYWGQGTLVTVSSGGGGSGGRASGGGGSDIQMTQSPSSLSASVGDRVTITCRASQGINSALAWYQQKPGKAPKLLIYAASSLQSGVPSRFSGSGSGTDFTLTISSLQPEDFATYYCQQYNSYPITFGQGTRLEIK", "binds"],
  ["MOG315 (scFv phage clone similar to MOG303 antibody) (scFv) scFv: EVQLVESGGGLVQPGGSLRLSCAASGFTFSTYAMSWVRQAPGKGLEWVSAISGSGVSTYYADSVKGRFTLSRDNSKNTLYLQMNSLRAEDTAVYYCAKAYYDILTGNFLDYWGQGTLVTVSSGGGGSGGRASGGGGSAIQLTQSPSSLSASVGDRVTITCRASQGISSALAWYQQKPGKAPKLLIYDASSLESGVPSRFSGSGSGTDFTLTISSLQPEDFATYYCQQFNSYPLTFGGGTKVEIK", "binds"]
]}

The values you see were collected from patent US20260092110A1.
